Field: IC50 (nM), IL-6 secretion by MEF cells stimulated with IL-17F (5 ng/ml) and mTNF-α. Provide a value for each of the binders that follow.
tested.system: T1, cynomolgus IL-17F homodimer, His-tagged (cynomolgus, UniProt G7P4V0 31-163)
T1 sequence: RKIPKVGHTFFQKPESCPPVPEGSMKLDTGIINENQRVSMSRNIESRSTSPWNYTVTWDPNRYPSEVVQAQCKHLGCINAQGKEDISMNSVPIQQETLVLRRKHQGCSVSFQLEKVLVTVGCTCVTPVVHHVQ
protocol.details: cell-based or functional assay
Enter your answer as a number in nM; do not include the unit.

Q) Query: IC50 (nM), IL-6 secretion by MEF cells stimulated with IL-17F (5 ng/ml) and mTNF-α; subject: 22F8 antibody (antibody, V domains shown) VH: EVQLLESGGGLVQPGGSLRLSCAASGFTFSSYAMNWVRQAPGKGLEWVSTISGRGGSIYYADSVKGRFTISRDNSKNTLYLQMNSLRAEDTAVYYCAKEEATWDFDYWGQGTTVTVSS VL: EIVLTQSPATLSLSPGERATLSCRASQSVSSFLAWFQQKPGQAPRLLIYDASNRATGIPARFSGSGSGTDFTLTISSLEPEDFAVYYCQQRSNWPPTFGQGTKVEIK
A) 10

Q) # query: IC50 (nM), IL-6 secretion by MEF cells stimulated with IL-17F (5 ng/ml) and mTNF-α of entry 21B10 antibody (antibody, V domains shown) VH: EVQLVESGGGLVQPGGSLRLSCAASGFTFSSYSMNWVRQAPGKGLEWVSYISGGSSTIYYADSVKGRFTISRDNAKNSLYLQMNSLRDEDTAVYYCAREGYVSGTYYNYYYGMDVWGQGTTVTVSS VL: EIVLTQSPATLSLSPGERATLSCRASQSVSSYLAWYQQKPGQAPRLLIYDAPNRATGIPARFSGSGSGTDFTLTISSLEPEDFAVYYCQQRSNWSLTFGGGTKVEIK
A) 8.7

Q) Can you share its IC50 (nM), IL-6 secretion by MEF cells stimulated with IL-17F (5 ng/ml) and mTNF-α? I mean this binder: 43G6 antibody (antibody, V domains shown) VH: EVQLVESGGGLVQPGGSLRLSCAASGFTFSSYSMNWVRQAPGKGLEWVSYISSGSSTIYYADSVKGRFTISRDNAKNSLYLQMNSLRDEDTAVYYCAREGYVSGTYYNYYYGMDVWGQGTTVTVSS VL: EIVLTQSPATLSLSPGERATLSCRASQSVSSYLAWYQQKPGQAPRLLIYDAPNRATGIPARFSGSGSGTDFTLTISSLEPEDFAVYYCQQRSNWSLTFGGGTKVEIK
A) 8.4
